Test system: HepG2 viability, CellTiter-Glo ATP luminescence, 72 h
Assay: viability loss in human hepatoma cells – cell-based, CellTiter-Glo luminescence, cherry-pick, set 2, cytotoxicity control, dose response (AID 743395)
endpoint-label: AC35

Example results:
O=S(=O)(Nc1cc(Sc2cccc3cccnc23)c(O)c2ccccc12)c1ccccc1 = 7.49 µM
COc1ccc(C2=Nn3c(nnc3-c3ccccc3OC)SC2)cc1OC1CCOC1 (stereo not given) = 7.54 µM
O=C1c2ccccc2C(=O)c2c1cccc2N1CCCC1 = 18.9 µM

Query: Give reported AC35 for COc1cc(OC)cc(-c2cc3ccc(OC)cc3cn2)c1 (HepG2 viability, CellTiter-Glo ATP luminescence, 72 h)
Result: 4.68 µM

Query: Give reported AC35 for COc1ccc(OC)c(Nc2nc(-c3sc(NC(=O)C(C)(C)C)nc3C)cs2)c1 (HepG2 viability, CellTiter-Glo ATP luminescence, 72 h)
Result: 9.87 µM

Query: Give reported AC35 for CCOC(=O)[C@]12CCCC=C1N(Cc1cccc3ccccc13)C(=O)[C@H](CC(=O)NCc1cccc(C(F)(F)F)c1)C2 (HepG2 viability, CellTiter-Glo ATP luminescence, 72 h)
Result: 9.99 µM

Query: Give reported AC35 for Cc1ccc(-c2ccc3c(c2)O[C@@H](CN(C)Cc2ccccn2)[C@H](C)CN([C@H](C)CO)S3(=O)=O)cc1 (HepG2 viability, CellTiter-Glo ATP luminescence, 72 h)
Result: 15.3 µM

Query: Give reported AC35 for Cc1cc(Br)cc(/C=N/NC(=O)c2ccc3c(c2)OCO3)c1O (HepG2 viability, CellTiter-Glo ATP luminescence, 72 h)
Result: 8 µM

Query: Give reported AC35 for Nc1ccn([C@@H]2O[C@H](CO)[C@@H](O)[C@@H]2O)c(=O)n1 (HepG2 viability, CellTiter-Glo ATP luminescence, 72 h)
Result: 7.89 µM

Query: Give reported AC35 for CCN(CC)CCn1nc2c3c(cccc3c1=O)-c1ccccc1-2 (HepG2 viability, CellTiter-Glo ATP luminescence, 72 h)
Result: 2.82 µM

Query: Give reported AC35 for Cc1cccc(NS(=O)(=O)c2ccc(-c3cnc(C4CC4)o3)cc2)c1 (HepG2 viability, CellTiter-Glo ATP luminescence, 72 h)
Result: 5.11 µM

Query: Give reported AC35 for Cn1cc(C(=O)N/N=C/c2ccc3c(c2)OCO3)c2ccccc21 (HepG2 viability, CellTiter-Glo ATP luminescence, 72 h)
Result: 11.2 µM

Query: Give reported AC35 for N#C[C@H]1[C@H](c2ccc(C3=CCCCC3)cc2)[C@@H](CO)N1C(=O)NC1CCCCC1 (HepG2 viability, CellTiter-Glo ATP luminescence, 72 h)
Result: 10.3 µM

Query: Give reported AC35 for COc1cccc2c1C(=O)c1c(O)c3c(c(O)c1C2=O)CC(O)(C(=O)CO)CC3OC1CC(N(C)C)C(O)C(C)O1 (stereo not given) (HepG2 viability, CellTiter-Glo ATP luminescence, 72 h)
Result: 0.0659 µM

Query: Give reported AC35 for Cc1cc(NCc2ccccn2)n2nc(C)c(-c3ccccc3)c2n1 (HepG2 viability, CellTiter-Glo ATP luminescence, 72 h)
Result: 10 µM

Query: Give reported AC35 for CC(=NNC(=S)N1CC2CCC(CC2)C1)c1cnccn1 (HepG2 viability, CellTiter-Glo ATP luminescence, 72 h)
Result: 0.171 µM
